Molecular target: recombinant human secreted phospholipase A2 (Homo sapiens)
Sequence (P14555 21-144): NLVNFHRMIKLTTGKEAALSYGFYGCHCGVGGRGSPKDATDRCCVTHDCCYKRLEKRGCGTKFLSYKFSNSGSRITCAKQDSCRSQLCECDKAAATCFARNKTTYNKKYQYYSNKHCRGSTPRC
Test: chromogenic assay of sPLA2 inhibition (diheptanoyl thio-PC / DTNB, 96 well microtiter plates)
Type: biochemical
Details: absorbance at 405 nanometers, 40° C. for 30 minutes, pH 7.5, titrated in triplicate and averaged
# reported IC50; entries follow
reported metric: IC50 (µM)

• Cc1c(C(=O)C(N)=O)c2c(OCC(=O)O)cc3c(c2n1Cc1ccccc1-c1ccccc1)CCC3 = 0.035
• Cc1c(C(=O)C(N)=O)c2c(OCC(=O)O)cc3c(c2n1Cc1ccccc1Br)CCC3 = 0.01
• Cc1c(C(=O)C(N)=O)c2c(OCC(=O)O)cc3c(c2n1Cc1ccccc1-c1ccc(Br)s1)CCC3 = 0.044
• Cc1c(C(=O)C(N)=O)c2c(OCC(=O)O)cc3c(c2n1Cc1ccc(F)cc1)CCC3 = 0.082

###

target: recombinant human secreted phospholipase A2 (Homo sapiens, UniProt P14555); experiment: chromogenic assay of sPLA2 inhibition (diheptanoyl thio-PC / DTNB, 96 well microtiter plates); format: biochemical; details: absorbance at 405 nanometers, 40° C. for 30 minutes, pH 7.5, titrated in triplicate and averaged
# reported IC50; entries follow
reported metric: IC50 (µM)

* Cc1c(C(=O)C(N)=O)c2c(OCC(=O)O)cc3c(c2n1Cc1ccccc1)CCC3 [Example 4] | 0.01
* COC(=O)COc1cc2c(c3c1c(C(=O)C(N)=O)c(C)n3Cc1ccccc1Br)CCC2 [Example 16] | 0.453
* CCc1c(C(=O)C(N)=O)c2c(OCC(=O)OC)cc3c(c2n1Cc1ccccc1)CCC3 [Example 1] | 0.108
* Cc1c(C(=O)C(N)=O)c2c(OCC(=O)NS(=O)(=O)c3ccccc3)cc3c(c2n1Cc1ccccc1)CCC3 [Example 5] | 0.007
* Cc1c(C(=O)C(N)=O)c2c(OCC(=O)O)cc3c(c2n1Cc1ccccc1F)CCC3 [Example 9] | 0.009
* CCc1c(C(=O)C(N)=O)c2c(OCC(=O)O)cc3c(c2n1Cc1ccccc1)CCCC3 [Example 13] | 0.011
* COC(=O)COc1cc2c(c3c1c(C(=O)C(N)=O)c(C)n3Cc1ccc(F)cc1)CCC2 [Example 10] | 0.806
* COC(=O)COc1cc2c(c3c1c(C(=O)C(N)=O)c(C)n3Cc1ccccc1)CCC2 [Example 3] | 0.106
* COC(=O)COc1cc2c(c3c1c(C(=O)C(N)=O)c(C)n3Cc1cccc(F)c1)CCC2 [Example 6] | 0.132
